Biological target: human MGL from HeLa cells (Homo sapiens (Human))
Sequence (Q99685 whole entry): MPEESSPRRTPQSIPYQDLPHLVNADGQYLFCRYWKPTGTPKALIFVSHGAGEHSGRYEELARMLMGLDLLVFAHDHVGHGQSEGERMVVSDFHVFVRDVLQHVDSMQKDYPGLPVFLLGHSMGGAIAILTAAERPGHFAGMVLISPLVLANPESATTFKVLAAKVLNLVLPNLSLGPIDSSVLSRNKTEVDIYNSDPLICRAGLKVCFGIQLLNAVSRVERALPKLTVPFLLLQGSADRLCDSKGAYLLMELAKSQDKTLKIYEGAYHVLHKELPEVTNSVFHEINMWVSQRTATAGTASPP
Experiment: MGL in vitro activity assay ([glycerol-1,3-3H]-oleoyl glycerol hydrolysis, activated carbon filtration)
Details: 300 nM [Glycerol-1,3-3H]-oleoyl glycerol, one hour
Source text: The assay used to measure the in vitro activity of MGL is adapted from the assay used for another serine hydrolase (FAAH) described in Wilson et al., 2003 (A high-throughput-compatible assay for determining the activity of fatty acid amide hydrolase. Wilson S J, Lovenberg T W, Barbier A J. Anal Biochem. 2003 Jul. 15; 318(2):270-5). […]
parameterMeasured: pIC50
Give only the number. pIC50 is defined as minus log10 of concentration in molar units.

Form field pIC50, entry CCOc1cccc(C2CCC3(CC2)CN(C(=O)[C@H]2C[C@@](C)(O)C2)C3)c1 [Example 132] : 7.39

Looking up COC1(c2ccccc2)CCC2(CC1)CN(C(=O)[C@H]1C[C@@](C)(O)C1)C2 [Example 342] , I found its pIC50 recorded as 7.40

Input COc1cc(C2CCC3(C2)CN(C(=O)[C@H]2C[C@@](C)(O)C2)C3)ccc1Cl (mixture of isomers) [Example 87] . Output pIC50: 6.98

compound C[C@]1(O)C[C@@H](C(=O)N2CC3(CCC(Cc4ccc(C5CC5)cc4)C3)C2)C1 (mixture of isomers) [Example 200] , pIC50 observed: 8.16

Kindly note the recorded pIC50 for Cc1c(CC2CC3(C2)CN(C(=O)[C@H]2C[C@@](C)(O)C2)C3)cccc1C1CC1 [Example 154] , which is 8.77

Input COc1ccc(C2CCC3(C2)CN(C(=O)[C@H]2C[C@@](C)(O)C2)C3)cc1C (mixture of isomers) [Example 76] . Output pIC50: 7.29

All figures here come from patent US11802111B2.
